Target: Epidermal growth factor receptor (Homo sapiens) (UniProt P00533)
Sequence (P00533 whole entry, looked up): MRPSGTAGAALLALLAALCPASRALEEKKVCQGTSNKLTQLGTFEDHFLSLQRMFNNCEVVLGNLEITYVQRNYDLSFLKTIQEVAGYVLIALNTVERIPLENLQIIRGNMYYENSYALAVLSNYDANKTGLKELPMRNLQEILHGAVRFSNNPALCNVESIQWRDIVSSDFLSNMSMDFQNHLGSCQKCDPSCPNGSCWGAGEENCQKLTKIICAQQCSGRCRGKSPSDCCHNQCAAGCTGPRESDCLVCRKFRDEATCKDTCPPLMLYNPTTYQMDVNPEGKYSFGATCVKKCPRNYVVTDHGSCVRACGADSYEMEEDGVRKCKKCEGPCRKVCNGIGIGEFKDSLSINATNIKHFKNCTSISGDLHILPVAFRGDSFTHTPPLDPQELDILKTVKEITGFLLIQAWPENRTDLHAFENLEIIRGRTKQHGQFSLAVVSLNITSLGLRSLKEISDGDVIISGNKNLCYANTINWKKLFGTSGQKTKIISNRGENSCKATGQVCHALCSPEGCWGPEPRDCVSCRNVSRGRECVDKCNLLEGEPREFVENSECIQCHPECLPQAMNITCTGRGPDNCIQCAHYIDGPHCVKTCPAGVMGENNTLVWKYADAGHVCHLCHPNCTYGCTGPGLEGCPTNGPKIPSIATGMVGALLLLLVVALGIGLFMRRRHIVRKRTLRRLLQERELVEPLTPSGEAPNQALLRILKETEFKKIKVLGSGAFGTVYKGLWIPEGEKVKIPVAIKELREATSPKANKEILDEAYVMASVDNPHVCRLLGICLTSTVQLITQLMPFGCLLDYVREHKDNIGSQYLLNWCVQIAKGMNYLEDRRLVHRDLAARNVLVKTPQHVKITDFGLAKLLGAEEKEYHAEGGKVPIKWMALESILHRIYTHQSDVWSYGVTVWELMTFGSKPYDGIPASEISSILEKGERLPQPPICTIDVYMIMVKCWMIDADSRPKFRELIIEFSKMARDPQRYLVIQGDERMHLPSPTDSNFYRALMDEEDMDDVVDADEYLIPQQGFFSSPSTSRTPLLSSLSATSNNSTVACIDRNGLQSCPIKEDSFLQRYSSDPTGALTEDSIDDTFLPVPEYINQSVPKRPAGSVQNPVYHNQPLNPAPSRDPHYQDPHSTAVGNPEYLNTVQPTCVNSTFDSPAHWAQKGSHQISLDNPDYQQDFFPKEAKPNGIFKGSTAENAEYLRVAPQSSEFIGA
Test: EGFR binders on small-molecule microarrays, primary screen, biochemical, small-molecule microarray, 635 nm fluorescence (AID 1104);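 further: score merges 667 nm emission intensity with spot signal to noise over triplicate slides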
Settings: EGFR binding, higher = more signal
Record label 1 whenever composite z-score is at 0.2 or higher; record label 0 when lower.

Check if composite z-score >= 0.2 (inclusive). Item: Cc1ccc(S[C@]2(C(=O)NC(C)C)CC(=O)N(Cc3ccccc3)[C@@H]2c2ccc(CO)cc2I)cc1
label 0

Decide: is the reported value of composite z-score for C=C[C@H](OC)[C@@H](O)c1ccc(OC)c(O)c1 equal to or greater than 0.2?
label 0

New cases:
Item Cc1ccc(S[C@]2(C(=O)NC3CC3)CC(=O)N(C3Cc4ccccc4C3)[C@@H]2c2ccc(CO)cc2I)cc1 with composite z-score of 0.2 or above?
label 0

Check this compound for composite z-score at or above 0.2: COC(=O)C1=CC(c2ccc(CO)cc2)=CC(C2CC2)N(Cc2cc3c(cc2Br)OCO3)C=C1C(=O)OC (configuration not stated)
label 1

Test whether the compound [N-]=[N+]=Nc1ccccc1C[C@@]1(C(=O)NCc2ccccc2)N=C(c2ccc(OCCCO)cc2)O[C@@H]1c1ccccc1 records composite z-score of 0.2 or higher.
label 0

Could you tell me if the measured composite z-score of CCN1C(=O)C2CC(=O)C3C(CN(S(=O)(=O)c4ccc(C)cc4)C3c3ccc(C)cc3)C2C1=O (configuration not stated) reaches 0.2 or more?
label 0

Reported composite z-score at or above 0.2? COC(=O)[C@@]1(Cc2ccc(F)cc2)[C@H]2c3cc(C(=O)N4CCCC4)n(Cc4ccc(C(F)(F)F)nc4)c3C[C@H]2CN1C(=O)c1ccccc1
label 1

The measured values listed here are drawn from PubChem BioAssay.
